test: Hydrophobic interaction chromatography; type: physicochemical; conditions: Butyl Sepharose FF, linear decreasing (NH4)2SO4 650–0 mM, 20 ml; 20 mM potassium phosphate, pH 6.5, 50 mM NaCl; 280 nm; 500 μg protein
READOUT_LABEL: elution volume after start of the gradient (mL)

{"columns": ["MOLECULE", "MEASURED_RESULT"],
 "data": [
  ["M255R: PEX19 CTD variant M255R (helix α4) (protein, left off: His6, end not stated, cleaved) GMDEGDGEGNILPIMQSIMQNLLSKDVLYPSLKEITEKYPEWLQSHRESLPPEQFEKYQEQHSVMCKICEQFEAETPTDSETTQKARFEMVLDLRQQLQDLGHPPKELAGEMPPGLNFDLDALNLSGPPGASGEQCLIM", 5.00],
  ["M179R: PEX19 CTD variant M179R (helix α1) (protein, left off: His6, end not stated, cleaved) GMDEGDGEGNILPIMQSIRQNLLSKDVLYPSLKEITEKYPEWLQSHRESLPPEQFEKYQEQHSVMCKICEQFEAETPTDSETTQKARFEMVLDLMQQLQDLGHPPKELAGEMPPGLNFDLDALNLSGPPGASGEQCLIM", 4.60],
  ["M179R farn: farnesylated PEX19 CTD variant M179R (protein, UniProt P40855 161-299, looked up, variant M179R, C-terminal domain farnesylated) GMDEGDGEGNILPIMQSIRQNLLSKDVLYPSLKEITEKYPEWLQSHRESLPPEQFEKYQEQHSVMCKICEQFEAETPTDSETTQKARFEMVLDLMQQLQDLGHPPKELAGEMPPGLNFDLDALNLSGPPGASGEQCLIM", 11.26]
]}
